TESTED SYSTEM: GTPase KRas (Homo sapiens, UniProt P01116, G12D)
Sequence (P01116 whole entry G12D): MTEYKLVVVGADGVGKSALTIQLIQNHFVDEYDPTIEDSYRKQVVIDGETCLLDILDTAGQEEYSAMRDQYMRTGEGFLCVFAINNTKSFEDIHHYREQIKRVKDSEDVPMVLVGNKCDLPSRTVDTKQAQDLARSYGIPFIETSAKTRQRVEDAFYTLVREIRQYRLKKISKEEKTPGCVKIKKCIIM
PROCEDURE SUMMARY: Inhibition of recombinant biotinylated KRAS G12D mutant (unknown origin) assessed as inhibition of SOS-catalyzed nucleotide exchange preincubated for 60 mins followed by addition of human SOS protein and unlabeled GTP and measured after 60 mins by TR-FRET analysis
pIC50: −log10 of the molar value. Where a SMILES comes first, the peptide text is derived from it. Bridges are numbered along the chain shown (N, C = ends). [ ]: non-standard residue; d: D form. Phe(3,4,5-F3) = N[C@@H](Cc1cc(F)c(F)c(F)c1)C(=O)O; Ala(4-thiazolyl) = N[C@@H](Cc1cscn1)C(=O)O; hPhe = N[C@@H](CCc1ccccc1)C(=O)O; hLeu = CC(C)CC[C@H](N)C(=O)O; Nva = CCC[C@H](N)C(=O)O
ATTRIBUTE MEASURED: pIC50

Query :: Write down pIC50 measured for item CC[C@H](C)[C@@H]1NC(=O)[C@H](Cc2ccc(O)cc2)NC(=O)[C@H](CC(C)C)NC(=O)[C@@H]2CCCN2C(=O)[C@@H](NC(=O)[C@H](CCCNC(=N)N)NC(=O)[C@H](CCCNC(=N)N)NC(C)=O)CSSC[C@@H](C(=O)N[C@@H](CCCNC(=N)N)C(=O)N[C@@H](CCCNC(=N)N)C(N)=O)NC(=O)[C@H](C(C)C)NC(=O)[C@@H]2CCCN2C(=O)[C@H](CC(=O)O)NC(=O)[C@H](Cc2cc(F)c(F)c(F)c2)NC(=O)[C@H](Cc2cscn2)NC1=O (Ac-RRCPLYI[Ala(4-thiazolyl)][Phe(3,4,5-F3)]DPVCRR-NH2; disulfide 3-13)
Result :: < 4.95

Query :: Write down pIC50 measured for item CC(=O)N[C@@H](CCCNC(=N)N)C(=O)N[C@@H](CCCNC(=N)N)C(=O)N[C@H]1CSSC[C@@H](C(=O)N[C@@H](CCCNC(=N)N)C(=O)N[C@@H](CCCNC(=N)N)C(N)=O)NC(=O)[C@H](C(C)C)NC(=O)[C@@H]2CCCN2C(=O)[C@H](CC(=O)O)NC(=O)[C@H](Cc2ccc(O)cc2)NC(=O)[C@H](CO)NC(=O)[C@H](CCC(C)C)NC(=O)[C@H](Cc2ccc(O)cc2)NC(=O)[C@H](CC(C)C)NC(=O)[C@@H]2CCCN2C1=O (Ac-RRCPLY[hLeu]SYDPVCRR-NH2; disulfide 3-13)
Result :: < 4.95

Query :: Write down pIC50 measured for item CCC[C@@H]1NC(=O)[C@H](CCc2ccccc2)NC(=O)[C@H](CC(C)C)NC(=O)[C@@H]2CCCN2C(=O)[C@@H](NC(=O)[C@H](CCCNC(=N)N)NC(=O)[C@H](CCCNC(=N)N)NC(C)=O)CSSC[C@@H](C(=O)N[C@@H](CCCNC(=N)N)C(=O)N[C@@H](CCCNC(=N)N)C(N)=O)NC(=O)[C@H](C(C)C)NC(=O)[C@@H]2CCCN2C(=O)[C@H](CC(=O)O)NC(=O)[C@H](Cc2ccc(O)cc2)NC(=O)[C@H](CO)NC1=O (Ac-RRCPL[hPhe][Nva]SYDPVCRR-NH2; disulfide 3-13)
Result :: < 4.95

Query :: Write down pIC50 measured for item `CC[C@H](C)[C@@H]1NC(=O)[C@H](Cc2ccc(-c3ccccc3)cc2)NC(=O)[C@H](CC(C)C)NC(=O)[C@@H]2[C@H](c3ccccc3)CCN2C(=O)[C@@H](NC(=O)[C@H](CCCNC(=N)N)NC(=O)[C@H](CCCNC(=N)N)NC(=O)[C@H](CCCCN=[N+]=[N-])NC(C)=O)CSSC[C@@H](C(=O)N[C@@H](CCCNC(=N)N)C(=O)N[C@@H](CCCNC(=N)N)C(N)=O)NC(=O)[C@H](C(C)C)NC(=O)[C@@H]2CCCN2C(=O)[C@H](CC(=O)O)NC(=O)[C@H](Cc2ccc(O)cc2)NC(=O)[C@H](CO)NC1=O`
Result :: > 9.00

The origin of these recorded values is ChEMBL document CHEMBL5131563.
